system.tested: HCV NS5B polymerase (His-tagged, C-terminal 21 amino acid deleted NS5B, HC-J4) (Hepatitis C virus genotype 1b, UniProt O92972)
Construct: The cDNA encoding NS5B amino acid 1-570 (HC-J4, genotype 1b); His tag (His6, from pET-21b) (C); made in house; host or cells: E. coli BL21 (DE3)
Sequence (O92972 2417-3000, looked up, stated change not applied): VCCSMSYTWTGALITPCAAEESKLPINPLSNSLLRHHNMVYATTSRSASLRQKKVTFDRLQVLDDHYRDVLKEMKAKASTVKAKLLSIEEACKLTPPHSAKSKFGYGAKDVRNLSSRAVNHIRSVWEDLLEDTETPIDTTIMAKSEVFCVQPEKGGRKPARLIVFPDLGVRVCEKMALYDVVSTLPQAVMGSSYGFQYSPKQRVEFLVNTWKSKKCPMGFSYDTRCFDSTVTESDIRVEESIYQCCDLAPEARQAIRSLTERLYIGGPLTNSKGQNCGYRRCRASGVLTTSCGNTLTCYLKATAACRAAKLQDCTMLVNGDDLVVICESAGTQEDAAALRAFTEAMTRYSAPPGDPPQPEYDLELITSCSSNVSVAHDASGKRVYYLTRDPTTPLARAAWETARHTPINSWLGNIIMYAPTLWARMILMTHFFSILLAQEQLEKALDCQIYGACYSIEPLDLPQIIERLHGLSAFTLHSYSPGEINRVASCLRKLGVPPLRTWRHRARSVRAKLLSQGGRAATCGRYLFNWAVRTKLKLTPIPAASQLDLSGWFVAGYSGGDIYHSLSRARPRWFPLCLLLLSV
protocol.description: NS5b polymerase assay (biochemical RdRp assay, 3H-GTP incorporation, SPA beads)
Parameters: species or system HCV genotype 1b
condition.label: 200 nM enzyme, 3H-GTP incorporation, 2 h at 25° C.; read-out: NS5B Polymerase Assay IC50

{"columns": ["molecule", "IC50"],
 "data": [
  ["CCCCOc1ccc(C2CC(=O)C3=C(C2)Nc2ccccc2N(C(=O)CC)C3c2ccccc2)cc1 (mixture of isomers) [compound 217]", "> 42.7 µM"],
  ["CC(=O)N1c2ccccc2NC2=C(C(=O)CC(c3ccccc3Cl)C2)C1c1ccc(C)cc1 (stereo not shown) [compound 229]", "> 42.7 µM"],
  ["COc1ccc(C2CC(=O)C3=C(C2)Nc2ccccc2N(C(C)=O)C3c2cccc([N+](=O)[O-])c2)cc1OC (stereo not shown) [compound 172]", "> 42.7 µM"],
  ["COc1ccc(C2C3=C(CC(c4ccc(C)cc4)CC3=O)Nc3ccccc3N2C(=O)c2ccccc2)cc1OC (mixture of isomers) [compound 197]", "> 33.3 µM"]
]}
